# Experimental details: VP16 transactivation reporter inhibitors, counter-screen for LRH-1 inverse agonist project, cell-based, luminescence, high throughput (AID 651615)
# Conditions used: Gal4-VP16 luciferase reporter cells, at 3.6 µM, stronger effect = higher value
Field: inhibition. Provide a value for each of the compounds that follow.
Entry rule: numbers only, all in %.

Looking up COc1ccccc1-c1nnc2sc(-c3ccc(N(C)C)cc3)nn12 , I see its inhibition listed as 31.2

Looking up CCC(C)(C)n1nnnc1CN1CCC(O)(c2cccc(C(F)(F)F)c2)CC1 , I see its inhibition listed as -2.12

Looking up CN1c2ccccc2C(C)(C)C12C=Nc1c(cc(N3CCOCC3)c3ccccc13)O2 (stereo not drawn) , I see its inhibition listed as 4.98

Looking up COc1ccc(CCNC(=O)COC(=O)Cc2ccccc2[N+](=O)[O-])cc1 , I see its inhibition listed as -6.51

Looking up O=c1cnnc(N/N=C/c2ccccn2)[nH]1 , I see its inhibition listed as 65.3

Looking up CCOc1ccc(OCCN2C(=O)NC(Cc3c[nH]c4ccccc34)C2=O)cc1 (stereo not drawn) , I see its inhibition listed as 4.66

Looking up O=C(Nc1ccc(F)cc1)Nc1cc(OCC(F)(F)F)cc(OCC(F)(F)F)c1 , I see its inhibition listed as 78

Looking up CC[n+]1c(/C=C2\Sc3ccccc3N2C)ccc2cccc(C)c21 , I see its inhibition listed as 87

Looking up Cc1ccc(NC(=O)COC(=O)C(NS(=O)(=O)c2ccc(Cl)cc2)C(C)O)cc1C (stereo not drawn) , I see its inhibition listed as -7.53

Looking up COc1ccc2[nH]c3c(C)c4ccncc4c(C)c3c2c1 , I see its inhibition listed as 72.1

Looking up Nc1nc(-c2ccccc2)c(CCCOc2ccc(NC(=O)CBr)cc2)c(=O)[nH]1 , I see its inhibition listed as -15.6

Looking up COc1cccc2c1C(=O)c1c(O)c3c(c(O)c1C2=O)CC(O)(C(=O)CO)CC3OC1CC(N(C)C)C(O)C(C)O1 (stereo not drawn) , I see its inhibition listed as 96.5

Looking up CCOc1ccc(Br)cc1/C(C)=N\NC1=NCCN1 , I see its inhibition listed as 33.2

Looking up CN(C)c1ccc(C=c2c3ccccc3n3c2c2ccccc2[n+]3C)cc1 , I see its inhibition listed as 91.7

Looking up O=C(c1ccco1)N1CCN(C(=O)c2ccc(COc3ccc(Cl)cc3Cl)o2)CC1 , I see its inhibition listed as -11.1

Looking up O=C(CC1C(=O)NCCN1C(=S)Nc1ccccc1)Nc1ccc2c(c1)OCCO2 (stereo not drawn) , I see its inhibition listed as -25.2

Looking up CC(=O)c1ccc(OC(C)C(=O)OCC(=O)NCCc2ccccc2)cc1 (stereo not drawn) , I see its inhibition listed as 7.05

Looking up COc1ccc(-c2nnc(NC(=O)c3ccc([N+](=O)[O-])o3)o2)c(OC)c1 , I see its inhibition listed as 10.2

Looking up O=C(C(Cl)c1ccccc1)N1CCOCC1 (stereo not drawn) , I see its inhibition listed as -10.2

Looking up CCOC(=O)c1ccc(N2CCN(C(=O)c3ccccc3)CC2)c(NC(=O)c2ccco2)c1 , I see its inhibition listed as -26.2

Looking up O=c1c2ccccc2sc2ccc(C#CC3(O)CCCCC3)cc12 , I see its inhibition listed as 71.2

Looking up COc1ccc(CCNC(=O)CN2C(=O)C3(OCCCO3)c3ccccc32)cc1OC , I see its inhibition listed as -9.46

Looking up O=C(Cn1cnc2c(nnn2-c2ccccc2)c1=O)NCC1CCCO1 (stereo not drawn) , I see its inhibition listed as 7.48

Looking up Cc1cc(C(=O)N/N=C/c2ccc([N+](=O)[O-])o2)c(C)o1 , I see its inhibition listed as 3.18

Looking up CC(=O)C1=C(c2ccc(Br)cc2)C(=O)c2ccccc2C1=O , I see its inhibition listed as 92

Looking up O=C(CSc1cc(Cl)ccc1Cl)Nc1ccc(N2CCOCC2)cc1 , I see its inhibition listed as 3.31

Looking up CCC(=O)Nc1nnc(SCC(=O)NCCc2ccc(OC)c(OC)c2)s1 , I see its inhibition listed as -15.4

Looking up O=C(Nc1ccc(S(=O)(=O)N2CCCC2)cc1)c1ccc(CN2CCc3ccccc3C2)cc1 , I see its inhibition listed as 68.7

Looking up COc1ccc(C2=CC(=O)OC3(CCCC3)O2)cc1 , I see its inhibition listed as -0.06

Looking up COc1ccc(-c2cc(-c3nc4ccccn4c3NCc3ccccc3)ccc2OC)cc1 , I see its inhibition listed as 98.7

Looking up Cn1nccc1C(=O)N/N=C/c1c(O)ccc2ccccc12 , I see its inhibition listed as 71.1

Looking up COc1cc(C2c3cc4c(cc3OC(NNC(N)=S)C2C)OCO4)cc(OC)c1OC (stereo not drawn) , I see its inhibition listed as 14

Looking up Nc1ccc(Oc2ccccc2-c2ccccc2)cc1 , I see its inhibition listed as 39.6

Looking up COc1ccccc1NC(=O)CN1CCN(CC(=O)Nc2ccc3c(c2)OCCO3)CC1 , I see its inhibition listed as -7.19

Looking up CN1CCN(c2ccc(CNS(=O)(=O)Cc3cccc(C(F)(F)F)c3)cc2)CC1 , I see its inhibition listed as 40.1

Looking up CC(=O)Nc1ccc(NC(=O)CSc2nnc(-c3cc4ccccc4o3)n2C)cc1 , I see its inhibition listed as -5.84

Looking up CCCC(=O)Nc1ccc(C(=O)N/N=C/c2ccc([N+](=O)[O-])o2)cc1 , I see its inhibition listed as 80.5

Looking up COc1cc2c(c(OC)c1OC)-c1ccc(SC)c(=O)cc1C(NC=O)CC2 (stereo not drawn) , I see its inhibition listed as 54.5

Looking up CC(C)c1cc(NC(=O)CCl)on1 , I see its inhibition listed as -11.4

Looking up O=C(CCl)N(c1ccccc1)C1CCS(=O)(=O)C1 (stereo not drawn) , I see its inhibition listed as 16.8

Looking up CC(C)(C)OC(=O)NCCCCCc1cn([C@@H](CO)C(=O)NCCCCCCCCCCC(=O)N2CCN(C(=O)OC(C)(C)C)CC2)nn1 , I see its inhibition listed as 80.6

Looking up Cc1cc(NC(=O)c2ccc([N+](=O)[O-])o2)ccc1NC(=O)c1ccco1 , I see its inhibition listed as -13.8

Looking up CCN(CC)CCn1c2ccccc2c2cnc(N)c(C#N)c21 , I see its inhibition listed as 74.8

====

# Test target: Steroidogenic factor 1 (Homo sapiens)
# Experimental details: SF1 (NR5A1) inverse agonists, counter-screen for LRH-1 inverse agonist project, cell-based, luminescence, high throughput (AID 651614);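 also: cells cotransfected with StAR promoter reporter and SF1 expression vector; 0% = vehicle on cells with receptor and 100% = vehicle on cells lacking receptor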
# Conditions used: cell-based SF1 luciferase reporter, at 3.6 µM, stronger effect = higher value
Cut-off 60% on inhibition, inclusive. At or above means 1.0; below means 0.0.

Does inhibition meet or surpass 60% for COc1ccc(NC(=O)Cn2nnc(C(=O)Nc3ccccc3C)c2N)cc1 ?
0.0

Does inhibition meet or surpass 60% for COc1ccc(NC(=O)C2=CC(c3ccc(OC)c(OC)c3)=NS(=O)(=O)N2C)cc1 ?
0.0

Does inhibition meet or surpass 60% for COC(=O)c1cc2occc2n1CC(=O)Nc1ccc(C)cc1C ?
0.0

Does inhibition meet or surpass 60% for Nc1ccc(Br)c2cccnc12 ?
0.0

Does inhibition meet or surpass 60% for c1ccc(-c2csc3ncnc(NCC4COc5ccccc5O4)c23)cc1 (stereo not given) ?
1.0

Does inhibition meet or surpass 60% for Cc1onc(-c2ccccc2)c1C(=O)O/N=C(\N)c1ccc([N+](=O)[O-])o1 ?
1.0

Does inhibition meet or surpass 60% for Cc1ccc2c(c1)N(C)/C(=C/c1cccc[n+]1C)S2 ?
1.0

Does inhibition meet or surpass 60% for CC(CCc1ccccc1)NC(=O)COc1ccc(S(=O)(=O)N2CCOCC2)cc1[N+](=O)[O-] (stereo not given) ?
0.0

Does inhibition meet or surpass 60% for CCCCCc1c(CC)ncn1CCc1ccccc1OC ?
0.0

Does inhibition meet or surpass 60% for O=C(Nc1ccc(Cl)cn1)c1ccc([N+](=O)[O-])o1 ?
0.0

Does inhibition meet or surpass 60% for COc1ccc2[nH]c3c(C)c4ccncc4c(C)c3c2c1 ?
1.0

Does inhibition meet or surpass 60% for Clc1cccc(CNc2ccn3nc(-c4ccc(OCc5ccccc5)cc4)cc3n2)c1 ?
0.0

Does inhibition meet or surpass 60% for Cn1cnc([N+](=O)[O-])c1Oc1ccc2ccccc2c1 ?
0.0

Does inhibition meet or surpass 60% for O=C(CC(O)(C(F)(F)F)C(F)(F)F)Nc1ccc(Cl)c(Cl)c1 ?
1.0

Does inhibition meet or surpass 60% for Cn1cccc1C(=O)OCC(=O)NCCCc1ccccc1 ?
0.0

Does inhibition meet or surpass 60% for COc1ccc(C2(C)NC(=O)N(CC(=O)Nc3ccc(C)cc3Br)C2=O)cc1OC (stereo not given) ?
0.0

Does inhibition meet or surpass 60% for O=C(CSc1nnc(-c2cccnc2)s1)Nc1ccnc2ccccc12 ?
0.0

Does inhibition meet or surpass 60% for Cc1cc(C)nc(NC(N)=NCCc2ccccc2)n1 ?
1.0

Does inhibition meet or surpass 60% for O=C(CCl)N(c1ccc(Cl)cc1)c1c[nH]c2ccccc12 ?
0.0

Does inhibition meet or surpass 60% for COc1ccc(CC(=O)Nc2cccc(S(=O)(=O)N3CCCCCC3)c2)cc1OC ?
0.0

Does inhibition meet or surpass 60% for COc1ccc(CC(=O)Nc2ccncc2Cl)cc1 ?
0.0

Does inhibition meet or surpass 60% for S=C1Cc2ccccc2N1 ?
1.0

Does inhibition meet or surpass 60% for Oc1cccc(Nc2nc(-c3ccccc3Cl)nc3ccccc23)c1 ?
0.0

Does inhibition meet or surpass 60% for COc1cc(-c2cc(C(=O)Nc3ccncc3)c3ccccc3n2)cc(OC)c1OC ?
0.0

Does inhibition meet or surpass 60% for CCCC(=O)NC(c1ccccc1Cl)c1ccc2cccnc2c1O (stereo not given) ?
1.0

Does inhibition meet or surpass 60% for CC(C)(C)Nc1nc(-c2ccccn2)nc2ccccc12 ?
1.0

Does inhibition meet or surpass 60% for CCOc1ccc(NC(=O)Cn2cc(C(=O)C3CC3)c3ccccc32)cc1 ?
0.0

Does inhibition meet or surpass 60% for CCN1/C(=C/c2ccc3cc(C)ccc3[n+]2CC)Sc2ccccc21 ?
1.0

Does inhibition meet or surpass 60% for COc1ccc(C(=O)Nc2nnc(Cc3cccs3)s2)cc1OC ?
1.0

Does inhibition meet or surpass 60% for O=C(CCl)Nc1ccc2c(c1)OCO2 ?
1.0

Does inhibition meet or surpass 60% for Cc1ccc2nc(-c3ccc(NS(C)(=O)=O)cc3)cc(-c3ccccc3)c2c1 ?
0.0

Does inhibition meet or surpass 60% for CC1(C)CC(N2CCCC2)=CC(=[N+]2CCCC2)C1 ?
0.0

Does inhibition meet or surpass 60% for Cc1cccc(CN2C(=O)CSc3ccc(C(=O)NC4CC4)cc32)c1 ?
0.0

Does inhibition meet or surpass 60% for CN1/C(=C\C(=O)C[n+]2ccc3ccccc3c2)C(C)(C)c2ccccc21 ?
1.0

Does inhibition meet or surpass 60% for Cc1nn(Cc2ccc(Cl)cc2)c(C)c1NC(=O)c1ccc([N+](=O)[O-])cc1 ?
0.0

Does inhibition meet or surpass 60% for COc1ccc(C2=Nn3c(nnc3-c3ccccc3OC)SC2)cc1OC1CCOC1 (stereo not given) ?
1.0

Does inhibition meet or surpass 60% for CC(=O)Nc1ccccc1OCC(=O)c1cc(C)n(Cc2cccs2)c1C ?
0.0

Does inhibition meet or surpass 60% for O=C(CSc1n[nH]c(-c2ccccc2)n1)Nc1ccc(N2CCOCC2)cc1 ?
0.0

Does inhibition meet or surpass 60% for CS/C(=C\[N+](=O)[O-])Nc1ccc(OC(F)(F)F)cc1 ?
1.0

Does inhibition meet or surpass 60% for COc1cc2c3c(cccc3c1)C(=O)N(CCN1CCCC1)C2=O ?
0.0

Does inhibition meet or surpass 60% for COc1ccc(OCCNC(=O)C2(C)CCN2Cc2ccc3ccccc3c2)cc1 (stereo not given) ?
0.0

Does inhibition meet or surpass 60% for Cc1ccc(C#CC[N+]2(CC#Cc3ccc(C)cc3)CCCCC2)cc1 ?
1.0
